Recorded pKi for the following compounds
- target: Glucocorticoid receptor (Homo sapiens, UniProt P04150)
- Sequence (P04150 whole entry): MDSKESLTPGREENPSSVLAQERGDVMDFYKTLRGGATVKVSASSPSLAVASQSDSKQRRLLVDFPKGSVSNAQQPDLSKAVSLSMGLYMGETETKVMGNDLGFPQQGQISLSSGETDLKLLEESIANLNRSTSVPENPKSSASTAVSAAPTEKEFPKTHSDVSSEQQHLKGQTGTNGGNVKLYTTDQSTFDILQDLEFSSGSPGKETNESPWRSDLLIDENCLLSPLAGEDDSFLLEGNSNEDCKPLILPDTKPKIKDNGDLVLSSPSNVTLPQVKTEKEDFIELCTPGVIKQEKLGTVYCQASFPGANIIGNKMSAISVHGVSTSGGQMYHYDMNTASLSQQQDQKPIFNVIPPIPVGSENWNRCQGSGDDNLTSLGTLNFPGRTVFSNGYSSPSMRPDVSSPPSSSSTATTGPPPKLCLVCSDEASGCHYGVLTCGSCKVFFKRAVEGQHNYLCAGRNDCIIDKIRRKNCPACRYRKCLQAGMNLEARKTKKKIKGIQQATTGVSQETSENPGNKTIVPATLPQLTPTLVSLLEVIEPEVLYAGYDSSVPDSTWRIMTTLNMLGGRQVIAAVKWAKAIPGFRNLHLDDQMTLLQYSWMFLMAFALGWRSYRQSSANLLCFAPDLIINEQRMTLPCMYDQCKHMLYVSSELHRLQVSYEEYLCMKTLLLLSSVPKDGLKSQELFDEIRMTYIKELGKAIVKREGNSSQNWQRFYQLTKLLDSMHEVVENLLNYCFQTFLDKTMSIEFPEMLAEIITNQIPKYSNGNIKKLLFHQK
API: returns pKi as number; meaning -log10 of concentration in mol/L.

The cases that follow already have their pKi on record.
{"structure-notation": "CC1=CC(C)(C)Nc2ccc3c(c21)/C(=C/c1ccncc1C)Oc1ccc(F)cc1-3", "pKi": 6.63}
{"structure-notation": "CC1=CC(C)(C)Nc2ccc3c(c21)/C(=C/c1ccccc1)Oc1ccc(F)cc1-3", "pKi": 6.68}

Here is another compound to look at.
Report pKi for CC1=CC(C)(C)Nc2ccc3c(c21)/C(=C/c1ncccc1C)Oc1ccc(F)cc1-3 please. 6.06

###

Recorded Efficacy for the following molecules
- target: Progesterone receptor (Homo sapiens) (UniProt P06401)
- Sequence (P06401 whole entry): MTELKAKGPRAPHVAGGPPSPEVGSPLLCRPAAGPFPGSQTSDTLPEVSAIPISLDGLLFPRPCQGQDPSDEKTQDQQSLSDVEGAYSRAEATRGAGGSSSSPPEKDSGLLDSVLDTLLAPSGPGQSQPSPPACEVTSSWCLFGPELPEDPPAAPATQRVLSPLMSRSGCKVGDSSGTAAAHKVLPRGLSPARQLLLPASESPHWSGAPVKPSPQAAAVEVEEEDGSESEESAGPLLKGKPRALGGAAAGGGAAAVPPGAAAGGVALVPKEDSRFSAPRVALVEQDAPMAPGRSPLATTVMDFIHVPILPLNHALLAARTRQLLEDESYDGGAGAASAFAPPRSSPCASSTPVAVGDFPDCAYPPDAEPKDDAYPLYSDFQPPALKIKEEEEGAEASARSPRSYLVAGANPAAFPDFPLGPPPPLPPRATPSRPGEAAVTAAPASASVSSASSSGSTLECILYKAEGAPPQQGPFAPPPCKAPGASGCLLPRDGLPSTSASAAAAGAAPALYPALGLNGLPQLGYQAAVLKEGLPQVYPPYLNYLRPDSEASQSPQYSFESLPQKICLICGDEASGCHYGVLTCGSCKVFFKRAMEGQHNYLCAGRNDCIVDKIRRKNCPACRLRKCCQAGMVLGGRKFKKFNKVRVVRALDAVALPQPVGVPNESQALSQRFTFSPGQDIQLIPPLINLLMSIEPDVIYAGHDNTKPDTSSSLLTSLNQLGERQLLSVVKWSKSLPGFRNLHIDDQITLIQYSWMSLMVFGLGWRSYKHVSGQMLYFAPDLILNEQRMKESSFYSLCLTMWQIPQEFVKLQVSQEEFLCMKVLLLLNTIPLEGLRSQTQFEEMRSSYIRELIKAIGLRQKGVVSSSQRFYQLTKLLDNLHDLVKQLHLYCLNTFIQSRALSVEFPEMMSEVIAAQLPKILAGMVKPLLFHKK
- test-protocol: Percent agonistic effect towards human progesterone receptor in T47D breast cancer cells
- Assay type: functional, cell-based

Report Efficacy for CC1=CC(C)(C)Nc2ccc3c(c21)/C(=C/c1ccsc1)Oc1ccc(F)cc1-3 please. 48%

Report Efficacy for CC1=CC(C)(C)Nc2ccc3c(c21)/C(=C/c1cccc(F)c1)Oc1c(F)cccc1-3 please. 51%

Report Efficacy for CC1=CC(C)(C)Nc2ccc3c(c21)/C(=C/c1ccncc1)Oc1ccc(F)cc1-3 please. 49%

Report Efficacy for COc1ccccc1/C=C1\Oc2ccc(F)cc2-c2ccc3c(c21)C(C)=CC(C)(C)N3 please. 40%

Report Efficacy for CC1=CC(C)(C)Nc2ccc3c(c21)/C(=C/c1ccccc1)Oc1ccc(F)cc1-3 please. 55%

Report Efficacy for CC1=CC(C)(C)Nc2ccc3c(c21)/C(=C/c1ccccc1N(C)C)Oc1ccc(F)cc1-3 please. 59%

Report Efficacy for CC1=CC(C)(C)Nc2ccc3c(c21)/C(=C/c1ccco1)Oc1ccc(F)cc1-3 please. 64%

Report Efficacy for CSc1ccccc1/C=C1\Oc2ccc(F)cc2-c2ccc3c(c21)C(C)=CC(C)(C)N3 please. 53%

Report Efficacy for CC1=CC(C)(C)Nc2ccc3c(c21)/C(=C/c1ccccc1Br)Oc1ccc(F)cc1-3 please. 37%

Report Efficacy for CCc1ccccc1/C=C1\Oc2ccc(F)cc2-c2ccc3c(c21)C(C)=CC(C)(C)N3 please. 51%

Report Efficacy for CC1=CC(C)(C)Nc2ccc3c(c21)/C(=C/c1ccccc1C(F)(F)F)Oc1ccc(F)cc1-3 please. 56%

Report Efficacy for CCCc1ccccc1/C=C1\Oc2ccc(F)cc2-c2ccc3c(c21)C(C)=CC(C)(C)N3 please. 46%

Report Efficacy for CC1=CC(C)(C)Nc2ccc3c(c21)/C(=C/c1ccccc1C(C)C)Oc1ccc(F)cc1-3 please. 43%

Report Efficacy for CC1=CC(C)(C)Nc2ccc3c(c21)/C(=C/c1ccncc1C)Oc1ccc(F)cc1-3 please. 46%

Report Efficacy for CC1=CC(C)(C)Nc2ccc3c(c21)/C(=C/c1ccccc1C=O)Oc1ccc(F)cc1-3 please. 72%

Report Efficacy for CC1=CC(C)(C)Nc2ccc3c(c21)/C(=C/c1ccccc1OC(F)(F)F)Oc1ccc(F)cc1-3 please. 56%
